Attribution: the array DNA melting data of Ke et al. (doi:10.1101/2024.01.08.574731)

Experiment: melting temperature; fluorescence melt of hairpins on a sequencing array, two-state fit, raised by 9.35 °C to match UV melts
Details: sodium 0.088 M
Metric: Tm (°C)

• GCGGCCTACCGC ((((....)))) = 55.8
• GGAGTCGGAAACAACTCC (((((.(....).))))) = 41.5
• GGATCCGAAAGGACATCC ((((((....)))..))) = 37.2
• GTCCATCGAAAGATGAC (((.(((....)))))) = 42.5
• GCCCGCGAAAGCGTGGGC ((((((....)))..))) = 68.6
• GATCCCTTGGGGGATC ((((((....)))))) = 60.1
• GATCCGTCTACGGATC ((((((....)))))) = 63.7
• GTCTGCGGAAACGTAGGC (.((.((....)).)).) = 42.4
• GACTTGGGAAACTAAGTC (((((.(....).))))) = 42.5
• GATATGGGAAACCGTATC ((((.((....)).)))) = 43
• GTAAAACGAAAGTTATAC (((.(((....))).))) = 31.6
• GCCCCGCGAAAGCCGGGC ((((.((....)).)))) = 66.4
• GCAACGCGAAAGCAGTGC (((..((....))..))) = 52.1
• CGGACGGAAACGTGTCCG ((((((....)))..))) = 49.5
• GATCCCGTCGGGGATC ((((((....)))))) = 64.1
• AATCCGAAAGGATT (((((....))))) = 52
• GAGAGCGAAAGCTTTCTC ((((((....)))..))) = 46.6
• CACGAGAAATCGTG (((((....))))) = 50.6
• GGTTGGGGAAACCCAACC (((((((....))))))) = 66.4
• GATCCTGTTAAGGATC ((((((....)))))) = 65.7
• GCTATCGAAAGATTAGC ((((((....))).))) = 42.7
• GCAAGGCGAAAGCCACGC ((..(((....)))..)) = 47.1
• GTTTAGGGAAACTTAAAC (((((.(....).))))) = 35.5
• GGGTGCTCGAAAGAGCCC (((..(((....)))))) = 52.6
• GGCCCTCGAAAGAGTGCC (((.(((....))).))) = 53.3
• GGTAAACGAAAGTTCACC (((.(((....))).))) = 40.4
• GTATCGGGAAACTGATGC (.(((.(....).))).) = 33.1
• GCTTGGCGAAAGCTCAGC (((..((....))..))) = 41.1
• GTGCAGGGAAACCCACAC (((..((....))..))) = 32.4
• GAAGTGCGAAAGCAATTC (((.(((....))).))) = 52.8
• GGACGCGAAAGCGCTCC ((((((....))).))) = 54.9
• GCTCTCGGAAACAAGAGC (((((.(....).))))) = 40.2
• GTTCTTGGAAACAAGAGC (.(((((....))))).) = 41.5
• GCACGCGAAAGCGGATGC ((((((....)))..))) = 54.9
• GCAGGAGAAATCCTGC ((((((....)))))) = 61.1
• TCAGGGAAACCTGA (((((....))))) = 41.8
• GATCTGTTGGCAGATC ((((((....)))))) = 54.2
• GAACACGCGAAAGCGTTC (((..(((....)))))) = 27.9
• GATCCGGTGCCGGATC ((((((....)))))) = 58
• GCACGTTCGAAAGAATGC (((..(((....)))))) = 29.6
• GGTTGTCGAAAGACTACC (((.(((....))).))) = 52
• GATCTCGTCAGAGATC ((((((....)))))) = 68.5
• GGAACAGGAAACTGCTCC (((.(((....))).))) = 40.8
• GGCGGCCCGAAAGGGGCC (((..(((....)))))) = 53.1
• GCGAAGACGAAAGTCCGC (((..(((....)))))) = 52.4
• GCTTTGCGAAAGCATCGC ((..(((....)))..)) = 48.7
• GGACATCGAAAGATATCC (((.(((....))).))) = 38
• GAATGGAAACATTC (((((....))))) = 40.6
• GACTCTGCGAAAGCAGTC (((..(((....)))))) = 32.2
• GGGCTAGGAAACTGGTCC ((.(.((....)).).)) = 41

###

Assay: melting temperature; fluorescence melt of hairpins on a sequencing array, two-state fit, raised by 9.35 °C to match UV melts
Settings: sodium 0.088 M
Class membership depends on Tm alone; the intervals are class 0: < 40 °C; class 1: ≥ 40 °C and < 50 °C; class 2: ≥ 50 °C

- GGCCCATCGAAAGATGCC (((..(((....)))))): class 0
- GGAGCGTCGAAAGACTCC (((..(((....)))))): class 0
- GTATACGGAAACGTATGC (.(((((....))))).): class 1
- GCAAGGCGAAAGCAATGC (((..((....))..))): class 1
- GTCTGCGGAAACGCAAAC ((.((((....)))).)): class 0
- GTAGTCGAAAGACCTAC ((((((....))).))): class 0
- GCCATTTCGAAAGAAGGC (((..(((....)))))): class 0
- GGATCCGAAAGGACCTCC ((((((....)))..))): class 1
- GCGTAAAACGC ((((...)))): class 2
- GCTCGTGGAAACGCGAGC (((((.(....).))))): class 2

###

Assay: folding enthalpy; higher = less favourable; fluorescence melt of hairpins on a sequencing array, two-state fit
Details: sodium 0.088 M
Rule: folding enthalpy of -20 kcal/mol or more gives met; anything lower gives not met.

* GTGCGGTCGAAAGACCAC (((..(((....)))))) | met
* GAGCGGGGAAACCCACTC (((.(((....))).))) | not met
* GCAACTGGAAACAGTTAC (.(((((....))))).) | met
* GTTGCTCGAAAGAGTAAC (((.(((....))).))) | not met
* GATCGTAAATACGATC ((((((....)))))) | not met
* GGTGGCCGAAAGGCAACC (((.(((....))).))) | not met
* GGAACAGGAAACTGCTCC (((.(((....))).))) | not met
* GGAAGCGGAAACACTTCC (((((.(....).))))) | not met
* GGAATGTCGAAAGACTCC (((..(((....)))))) | met
* GCGGCCTACCGC ((((....)))) | not met
* GCAGTCGAAAGACACTGC ((((((....)))..))) | met
* CGGTCGGAAACGAACCG ((((((....))).))) | not met
* GATCCATAACTGGATC ((((((....)))))) | not met
* GGAAATTCGAAAGAATCC (((..(((....)))))) | met
* GATCTAAATCTAGATC ((((((....)))))) | not met
* GGCAATACGAAAGTAGCC (((..(((....)))))) | met
* GCCGTATCGAAAGATGGC (((..(((....)))))) | met
* GTCATGGGAAACTGTGAC ((((..(....)..)))) | not met
* GATCCACGATGGATC ((((((...)))))) | not met
* GATCCGGCTGCGGATC ((((((....)))))) | not met
* GTCCCCGAAAGGGACGAC ((((((....)))..))) | met
* GGAGGGGGAAACCCCTTC (.(((((....))))).) | not met
* GTCACCTCGAAAGAGGAC (((..(((....)))))) | met
* GTGCAGGGAAACCTGTGC (..((((....))))..) | not met

###

Assay: melting temperature; fluorescence melt of hairpins on a sequencing array, two-state fit, raised by 9.35 °C to match UV melts
Settings: sodium 0.088 M
Measured Tm values are reported for all entries that follow.
Metric: Tm (°C)

- GATCTGCTGTCAGATC ((((((....)))))): 51.6
- GGATCTGGAAACAGATCC (((((((....))))))): 62.4
- GCGTCCGAAAGGAATCGC ((((((....)))..))): 47.8
- CGTCCGGAAACGGTCACG ((((((....)))..))): 35.2
- GAAAGACGAAAGTCGTTC (((.(((....))).))): 46
- GTGGACGAAAGTCCGCAC ((((((....)))..))): 55.7
- GATCATCGTCATGATC ((((((....)))))): 45.4
- GTTTCGGGAAACCGGAAC (((.(((....))).))): 49.6
- GGCCAGACGAAAGTCGCC (((..(((....)))))): 54.1
- GCGTAGCGAAAGCAAGGC ((.(.((....)).).)): 35.5
- GTCGCAGAAATGCGAC ((((((....)))))): 69.1
- GTACGGGAAACCGTAC ((((((....)))))): 63.2
- GGGGTAGGAAACTACCCC (((((((....))))))): 67.2
- GAACACGAAAGTGTTTTC ((((((....)))..))): 49
- GATCCCATCGGGATC ((((((...)))))): 67.4
- GCGGAACGCCGC ((((....)))): 58.4
- GATCAGGCTTCTGATC ((((((....)))))): 50.3
- GGAACAGAAATGTTCC ((((((....)))))): 54.9
- GCAGGGCGAAAGCCAAGC ((..(((....)))..)): 53.4
- GATCCTTCTGAGGATC ((((((....)))))): 53.7
- GATGCAGCGAAAGCTATC (((..(((....)))))): 24.7
- CAGGAGAAATCCTG (((((....))))): 43.7
- TGATTGAAAAATCA (((((....))))): 27.4
- GTACCGGGAAACCGGTGC (.(((((....))))).): 57.1
- GCGATCGAAAGATTACGC ((((((....)))..))): 42
- GCGGTCAACCGC ((((....)))): 56
